Assay: budding yeast growth modifiers under rapamycin – strain BY4716, OD600, 96 h, primary screen (AID 1091); further: test concentration not given here
Conditions: S. cerevisiae BY4716 + rapamycin, higher = more signal, called active from +8 up or from −8 down
Activity calls are given as the source filed them.

{"columns": ["COMPOUND", "z-score"],
 "data": [
  ["O=C1OCC=C[C@H]2OC34C=CCN(CCN5CCOCC5)C(=O)[C@H]3N(CCCCCO)C(=O)[C@@H]4[C@@H]12 (stereo partly specified)", "-0.406 (inactive)"],
  ["COC(=O)[C@@]1(Cc2ccccc2)[C@H]2c3cc(C(=O)N4CCCC4)n(CCO)c3C[C@H]2CN1C(=O)c1ccccc1", "-1.88 (inactive)"],
  ["C[N+](C)(C)CCCC[C@@H]1NC(=O)[C@H]2C[C@@H](C(=O)NCCCCCCN)[C@@H](c3cccc(OCCO)c3)N2C1=O", "-0.133 (inactive)"],
  ["COC(=O)C(CC#Cc1ccc2c(c1)[C@]1(C(=O)N2)[C@H](c2ccccc2OCCO)N2[C@H](c3ccccc3)[C@H](c3ccccc3)OC(=O)[C@H]2[C@@H]1C(=O)Nc1nc2ccccc2s1)C(=O)OC", "1.36 (inactive)"],
  ["C=CCC(OC(C)=O)[C@@H]1[C@@H](N(Cc2ccc(-c3ccccc3)cc2)C(=O)c2cccc3ccccc23)c2cc(OCCCO)ccc2N1C(=O)c1ccc2ccccc2n1 (stereo partly specified)", "-0.291 (inactive)"],
  ["COc1ccc([Si](C)(C)[C@@H]2[C@@H](CC(=O)N3Cc4ccccc4C[C@H]3CO)O[C@]3(C(=O)N(Cc4cccc(N5CCCCC5=O)c4)c4ccccc43)[C@H]2C)cc1", "2.4 (inactive)"]
]}
